target: T1, recombinant human IL12Rβ1/Fc fusion protein (human, UniProt P42701 24-545); assay: BioVeris competition; Fab titrated with IL12Rβ1/Fc, competitor rhIL-12 on beads
T1 construct: Bought from R&D Systems; Partly used biotinylated; also called rh IL12Rβ1
measuredProperty: pEC50
In plain terms, pEC50 is the concentration in mol/L turned into minus its base-10 logarithm.

State the recorded pEC50 for this entry: MOR05281 Fab (Fab, V domains shown) VH: QVQLKESGPALVKPTQTLTLTCTFSGFSLSTRGVGVSWIRQPPGKALEWLALIYWDEDKYYSTSLKTRLTISKDTSKNQVVLTMTNMDPVDTATYYCARYQSGYYYNNDGWGVDIWGQGTLVTVSS VL: DIQMTQSPSSLSASVGDRVTITCRASQSISSWLNWYQQKPGKAPKLLIYAASSLQSGVPSRFSGSGSGTDFTLTISSLQPEDFATYYCQQYYAFPHTFGQGTKVEIKR
10.22
